# Test Details: Displacement of [3H]epibatidine from Aplysia californica AchBP I118M, M116L, Y195F mutant expressed in HEK293S cells by scintillation proximity assay
# Type: cell-based
Property Label: Kd (µM)
Give bare numbers, in µM.

Illustrative cases are given below, each with its answer.
Fill blank: measured Kd of the compound N#C/N=c1\sccn1Cc1ccc(Cl)nc1 is ____. 0.247

Fill blank: measured Kd of the compound N#C/N=c1\sccn1Cc1cnc(Cl)c(N=[N+]=[N-])c1 is ____. 0.172

# ---- query compound ----
Fill blank: measured Kd of the compound [N-]=[N+]=Nc1cc(C2CC3CCC2N3)cnc1Cl (stereo not drawn) [AZIDOEPIBATIDINE] is ____. 0.012

###

# Test Details: Binding affinity to Aplysia californica AchBP S114M mutant expressed in HEK293S cells by scintillation proximity assay
# Assay type: cell-based
Property Label: pKd
One number for each entry, as −log10 of the molar value.

Fill blank: measured pKd of the compound Clc1ccc(C2CC3CCC2N3)cn1 (racemic) [EPIBATIDINE] is ____. 7.80

###

# Test Details: Displacement of [3H]epibatidine from Aplysia californica AchBP A107M, M116L, Y195F mutant expressed in HEK293S cells by scintillation proximity assay
# Type: cell-based
Property Label: pKd
Give bare numbers, as −log10 of the molar value.

Fill blank: measured pKd of the compound N#C/N=c1\sccn1Cc1ccc(Cl)nc1 is ____. 7.70

Fill blank: measured pKd of the compound N#C/N=c1\sccn1Cc1cnc(Cl)c(N=[N+]=[N-])c1 is ____. 7.77

Continuing:
Fill blank: measured pKd of the compound [N-]=[N+]=Nc1cc(C2CC3CCC2N3)cnc1Cl (stereo not drawn) [AZIDOEPIBATIDINE] is ____. 7.43

###

# Test Details: Binding affinity to Aplysia californica AchBP A107M, M116L, Y195F mutant expressed in HEK293S cells by scintillation proximity assay
# Type: cell-based
Property Label: Kd (nM)
Answers are plain numbers, in nM.

Fill blank: measured Kd of the compound Clc1ccc(C2CC3CCC2N3)cn1 (racemic) [EPIBATIDINE] is ____. 25

###

Would you kindly list Kd for each of these compounds?
# Test Details: Displacement of [3H]epibatidine from Aplysia californica AchBP V108M, M116L, Y195F mutant expressed in HEK293S cells by scintillation proximity assay
# Format: cell-based
Reply with a number, then the unit it belongs to.

Illustrative cases are given below, each with its answer.
Fill blank: measured Kd of the compound N#C/N=c1\sccn1Cc1ccc(Cl)nc1 is ____. 1.8 nM

Fill blank: measured Kd of the compound N#C/N=c1\sccn1Cc1cnc(Cl)c(N=[N+]=[N-])c1 is ____. 0.17 nM

# ---- query compound ----
Fill blank: measured Kd of the compound [N-]=[N+]=Nc1cc(C2CC3CCC2N3)cnc1Cl (stereo not drawn) [AZIDOEPIBATIDINE] is ____. 0.33 nM

###

Would you kindly list Kd for each of these molecules?
# Test Details: Displacement of [3H]epibatidine from Aplysia californica AchBP S114M, M116L, Y195F mutant expressed in HEK293S cells by scintillation proximity assay
# Format: cell-based

Illustrative cases are given below, each with its answer.
Fill blank: measured Kd of the molecule [N-]=[N+]=Nc1cc(C2CC3CCC2N3)cnc1Cl (stereo not drawn) [AZIDOEPIBATIDINE] is ____. 19 nM

Fill blank: measured Kd of the molecule N#C/N=c1\sccn1Cc1ccc(Cl)nc1 is ____. 13 nM

Continuing:
Fill blank: measured Kd of the molecule N#C/N=c1\sccn1Cc1cnc(Cl)c(N=[N+]=[N-])c1 is ____. 7.2 nM
